Known shrunken log2 fold change of a selection of sequences
tested on: Escherichia coli TOP10; assay: shrunken log2 fold change of peptide-encoding DNA abundance (4.5 h post-induction vs induction); higher = less antimicrobial activity (less host growth inhibition); details: time post-induction: 4.5 h; library: site-saturation at positions 5, 18, 19, 20

| Sequence string | Target system | shrunken log2 fold change |
| --- | --- | --- |
| RRIRCRPPRLPRPRPRPKKGPRP | Escherichia coli TOP10 | -0.129 |
| RRIRTRPPRLPRPRPRPSLDPRP | Escherichia coli TOP10 | -0.286 |
| RRIRMRPPRLPRPRPRPHSQPRP | Escherichia coli TOP10 | -0.00628 |
| RRIRGRPPRLPRPRPRPANPPRP | Escherichia coli TOP10 | 0.476 |
| RRIRFRPPRLPRPRPRPKWHPRP | Escherichia coli TOP10 | -0.0786 |
| RRIRARPPRLPRPRPRPDYKPRP | Escherichia coli TOP10 | -0.0382 |
| RRIRDRPPRLPRPRPRPRPQPRP | Escherichia coli TOP10 | 1.8 |
| RRIRSRPPRLPRPRPRPGIMPRP | Escherichia coli TOP10 | -0.334 |
| RRIRIRPPRLPRPRPRPTFYPRP | Escherichia coli TOP10 | -0.462 |
| RRIRPRPPRLPRPRPRPSSTPRP | Escherichia coli TOP10 | -0.315 |
| RRIRNRPPRLPRPRPRPDEAPRP | Escherichia coli TOP10 | 0.27 |
| RRIRVRPPRLPRPRPRPMQMPRP | Escherichia coli TOP10 | -0.0841 |
| RRIRHRPPRLPRPRPRPLFEPRP | Escherichia coli TOP10 | -0.135 |
| RRIRHRPPRLPRPRPRPYWGPRP | Escherichia coli TOP10 | -0.0562 |
| RRIRHRPPRLPRPRPRPLNAPRP | Escherichia coli TOP10 | -0.0576 |
| RRIRQRPPRLPRPRPRPHKKPRP | Escherichia coli TOP10 | -0.215 |
| RRIRWRPPRLPRPRPRPAHYPRP | Escherichia coli TOP10 | -0.145 |
| RRIRARPPRLPRPRPRPYYDPRP | Escherichia coli TOP10 | -0.215 |
| RRIRNRPPRLPRPRPRPSKYPRP | Escherichia coli TOP10 | -0.532 |
| RRIRRRPPRLPRPRPRPGFDPRP | Escherichia coli TOP10 | 0.289 |
| RRIRMRPPRLPRPRPRPPFYPRP | Escherichia coli TOP10 | -0.182 |
| RRIRVRPPRLPRPRPRPVTQPRP | Escherichia coli TOP10 | 0.12 |
| RRIRDRPPRLPRPRPRPVDNPRP | Escherichia coli TOP10 | 0.0262 |

---

system: Escherichia coli TOP10; test: shrunken log2 fold change of peptide-encoding DNA abundance (4.5 h post-induction vs induction); higher = less antimicrobial activity (less host growth inhibition); conditions: time post-induction: 4.5 h; library: site-saturation at positions 5, 18, 19, 20;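 note: peptides expressed intracellularly from a pBAD plasmid library in pooled LB shake-flask culture, induced with 0.3% L-arabinose, DNA abundance read by NGS, three biological replicates, DESeq2 with apeglm shrinkage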
Known shrunken log2 fold change of a selection of sequences
Measure: shrunken log2 fold change

| Sequence string | Target system | Value observed |
| --- | --- | --- |
| RRIRGRPPRLPRPRPRPHVQPRP | Escherichia coli TOP10 | 0.262 |
| RRIRVRPPRLPRPRPRPTYAPRP | Escherichia coli TOP10 | 0.141 |
| RRIRERPPRLPRPRPRPKNYPRP | Escherichia coli TOP10 | -0.463 |
| RRIRDRPPRLPRPRPRPREAPRP | Escherichia coli TOP10 | -0.0547 |
| RRIRHRPPRLPRPRPRPKEEPRP | Escherichia coli TOP10 | -0.0523 |
| RRIRCRPPRLPRPRPRPFTDPRP | Escherichia coli TOP10 | -0.182 |
| RRIRARPPRLPRPRPRPYEGPRP | Escherichia coli TOP10 | -0.195 |
| RRIRARPPRLPRPRPRPYFFPRP | Escherichia coli TOP10 | -0.225 |
| RRIRQRPPRLPRPRPRPFEKPRP | Escherichia coli TOP10 | -0.0519 |
| RRIRVRPPRLPRPRPRPPGSPRP | Escherichia coli TOP10 | 0.342 |
| RRIRNRPPRLPRPRPRPWPCPRP | Escherichia coli TOP10 | -0.185 |
| RRIRIRPPRLPRPRPRPVQYPRP | Escherichia coli TOP10 | -0.106 |
| RRIRPRPPRLPRPRPRPNWWPRP | Escherichia coli TOP10 | 0.717 |
| RRIRPRPPRLPRPRPRPHPKPRP | Escherichia coli TOP10 | 0.347 |
| RRIRCRPPRLPRPRPRPFGCPRP | Escherichia coli TOP10 | -0.308 |
| RRIRYRPPRLPRPRPRPVYKPRP | Escherichia coli TOP10 | -0.924 |
| RRIRWRPPRLPRPRPRPGAAPRP | Escherichia coli TOP10 | 1.06 |
| RRIRMRPPRLPRPRPRPSTEPRP | Escherichia coli TOP10 | 1.63 |
| RRIRLRPPRLPRPRPRPLPFPRP | Escherichia coli TOP10 | -0.289 |
| RRIRCRPPRLPRPRPRPSVYPRP | Escherichia coli TOP10 | -0.697 |
| RRIRMRPPRLPRPRPRPRYIPRP | Escherichia coli TOP10 | -0.31 |
| RRIRPRPPRLPRPRPRPYDHPRP | Escherichia coli TOP10 | -0.0209 |
| RRIRLRPPRLPRPRPRPKQRPRP | Escherichia coli TOP10 | 0.225 |
| RRIRRRPPRLPRPRPRPTRCPRP | Escherichia coli TOP10 | 0.661 |
| RRIRERPPRLPRPRPRPEILPRP | Escherichia coli TOP10 | -0.159 |
| RRIRLRPPRLPRPRPRPPEYPRP | Escherichia coli TOP10 | -0.26 |
| RRIRTRPPRLPRPRPRPPWPPRP | Escherichia coli TOP10 | 0.356 |
